B1: library; numbered along this chain (parent)
chain: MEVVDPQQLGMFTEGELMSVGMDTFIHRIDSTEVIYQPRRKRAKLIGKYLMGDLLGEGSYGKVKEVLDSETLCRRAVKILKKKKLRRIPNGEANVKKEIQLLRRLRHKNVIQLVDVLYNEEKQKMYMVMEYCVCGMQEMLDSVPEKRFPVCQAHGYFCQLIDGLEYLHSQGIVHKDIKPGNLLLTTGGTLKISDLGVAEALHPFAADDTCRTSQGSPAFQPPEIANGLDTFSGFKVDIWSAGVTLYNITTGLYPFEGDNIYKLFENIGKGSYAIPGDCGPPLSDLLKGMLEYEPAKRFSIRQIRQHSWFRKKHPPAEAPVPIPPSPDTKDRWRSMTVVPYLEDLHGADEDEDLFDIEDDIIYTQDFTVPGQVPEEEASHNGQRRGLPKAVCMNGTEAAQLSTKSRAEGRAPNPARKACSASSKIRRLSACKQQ

- Variants of: B1
- testName: STK11 functional score (HeLa growth suppression), rescaled enrichment; synonymous median = 1, nonsense median = 0 (normalised score)
- experimentalConditions: with HeLa; variant type: missense
measurementType: STK11 functional score

> print(dat)
    mutantid  numericvalue
 1      G10M          1.51
 2     K178A         0.756
 3      N90I         0.781
 4     D327P          1.59
 5      S69E          1.23
 6     V150K          1.36
 7     S216N         0.349
 8     Q123W         0.588
 9      T13L         0.906
10     E121V          1.41
11     A377E      -0.00596
12     D343S          1.35
13      K96V         0.667
14     Q364S           1.4
15     D343F          1.32
16     Q220L         0.714
17     G288P        0.0262
18     L400N          1.63
19     L113Y          1.67
20      I29L             1
21     V133H          1.47
22     I192C          1.43
23      K81G          1.04
24     G288H          1.61
25      M22H          1.67
26     S271T          1.17
27     Y292F         0.991
28     V372H          1.61
29     T186H          0.54
30     P315R          1.32
31     D352V          1.12
32     A206G          1.14
33     F255E         0.827
34     A318Q          1.61
35     E256D          1.63
36     R425S          1.54
37      L72V          1.16
38     I322T         0.984
39     L386W          1.13
40     V337C          1.15
41      L17T          1.62
42     T244Y         0.127
43     I424S          1.37
44     N266M         0.331
45     I238T          1.31
46     K108S         0.866
